B1: TPR 5TU (parent)
chain: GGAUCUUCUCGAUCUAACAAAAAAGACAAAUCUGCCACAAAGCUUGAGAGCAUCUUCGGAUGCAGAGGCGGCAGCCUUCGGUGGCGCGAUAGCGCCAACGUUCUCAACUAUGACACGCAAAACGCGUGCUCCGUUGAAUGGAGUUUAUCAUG

# Variants of: B1
# Measurement protocol: polymerase ribozyme fitness, log enrichment relative to wild type (log ratio); higher = more active; in vitro selection for triplet polymerase activity
Variants at the floor of the assay were thinned out.
Quantity name: polymerase ribozyme fitness (log ratio)

{"columns": ["Variant label", "Quantity name", "Qualifier sign", "Reported result"],
 "data": [
  ["G58C G68A G94U C96G", "polymerase ribozyme fitness (log ratio)", "≤", -4.2],
  ["G81A U127G", "polymerase ribozyme fitness (log ratio)", "=", -3.31],
  ["A29G C35G G84C G100A", "polymerase ribozyme fitness (log ratio)", "≤", -4.2],
  ["C85G G143U", "polymerase ribozyme fitness (log ratio)", "=", -3.79],
  ["G84U A97U", "polymerase ribozyme fitness (log ratio)", "=", -1.54],
  ["C51U C93A", "polymerase ribozyme fitness (log ratio)", "=", -2.34],
  ["C69G C85U U101G", "polymerase ribozyme fitness (log ratio)", "=", -1.25],
  ["U6G U78A G84U A91C C108A A121C", "polymerase ribozyme fitness (log ratio)", "≤", -4.2],
  ["A49G G83A U144G A147U", "polymerase ribozyme fitness (log ratio)", "=", -1.87],
  ["G25C A60G G86C C105U", "polymerase ribozyme fitness (log ratio)", "=", -3.36],
  ["A20U C27A C38G C54U C79U G112A", "polymerase ribozyme fitness (log ratio)", "≤", -4.2],
  ["A39U A64U C87G", "polymerase ribozyme fitness (log ratio)", "≤", -4.2],
  ["C57G A91G", "polymerase ribozyme fitness (log ratio)", "=", -4.08],
  ["U61C G92A A120C C123A U144C", "polymerase ribozyme fitness (log ratio)", "≤", -4.2],
  ["G58C C72U A150U", "polymerase ribozyme fitness (log ratio)", "=", 0.398],
  ["G84A A89G", "polymerase ribozyme fitness (log ratio)", "=", -1.6],
  ["G46A C93U", "polymerase ribozyme fitness (log ratio)", "=", -1.21],
  ["A22U A47U A49G G133C A142U", "polymerase ribozyme fitness (log ratio)", "≤", -4.2],
  ["C38G A52G G62A U135G", "polymerase ribozyme fitness (log ratio)", "≤", -4.2],
  ["C87U C118U A147U", "polymerase ribozyme fitness (log ratio)", "=", -0.411],
  ["C43A A47C U53A A91G", "polymerase ribozyme fitness (log ratio)", "≤", -4.2],
  ["A52C A113C", "polymerase ribozyme fitness (log ratio)", "=", -3.36],
  ["U55G U134A U139A", "polymerase ribozyme fitness (log ratio)", "≤", -4.2],
  ["C72U C76A G84A C87U A91G A106G C125A", "polymerase ribozyme fitness (log ratio)", "≤", -4.2],
  ["G25U A89C", "polymerase ribozyme fitness (log ratio)", "=", -3.41],
  ["C85A G112U A113C U148G", "polymerase ribozyme fitness (log ratio)", "≤", -4.2],
  ["C14A C38G G81U G94U", "polymerase ribozyme fitness (log ratio)", "=", -3.15],
  ["A60U G80A C85A C93A", "polymerase ribozyme fitness (log ratio)", "≤", -4.2],
  ["A39U G80C A91U", "polymerase ribozyme fitness (log ratio)", "≤", -4.2],
  ["C43U A91U A98G C99U U102G", "polymerase ribozyme fitness (log ratio)", "≤", -4.2],
  ["C85U U101G", "polymerase ribozyme fitness (log ratio)", "=", -1.15],
  ["U6G U7C A20U A39G A40C G42C G59A G92U C93G A115U C116U", "polymerase ribozyme fitness (log ratio)", "≤", -4.2],
  ["C35A A66G C87U U127C", "polymerase ribozyme fitness (log ratio)", "≤", -4.2],
  ["U7A C76U G94A C105U U151A", "polymerase ribozyme fitness (log ratio)", "=", -3.84],
  ["A17G G62U G68U C96A C105G U134G", "polymerase ribozyme fitness (log ratio)", "≤", -4.2],
  ["G50C C76A G83U C103A C132G U145G", "polymerase ribozyme fitness (log ratio)", "≤", -4.2],
  ["A40U G50C C85U", "polymerase ribozyme fitness (log ratio)", "=", -2.29],
  ["A3U G65A C85A", "polymerase ribozyme fitness (log ratio)", "=", -3.12]
]}
